Data credit: ChEMBL document CHEMBL1131066

- assay-system: Platelet-derived growth factor receptor beta (Mus musculus)
- test-protocol: Inhibitory concentration was evaluated against Platelet-derived growth factor receptor beta (PDGFr) tyrosine kinase
pIC50: −log10 of the molar value.
attribute-measured: pIC50

Worked cases, pIC50 given:
Q: Give Platelet-derived growth factor receptor beta (Mus musculus) pIC50 for `COc1ccccc1Nc1ncc2cc(-c3c(Cl)cccc3Cl)c(=O)n(C)c2n1`
Result: 5.74

Q: Give Platelet-derived growth factor receptor beta (Mus musculus) pIC50 for `CN1CCN(c2ccc(Nc3ncc4cc(-c5c(Cl)cccc5Cl)c(=O)n(C)c4n3)cc2)CC1`
Result: 6.96

Q: Give Platelet-derived growth factor receptor beta (Mus musculus) pIC50 for `CC[N+]([O-])(CC)CCOc1ccc(Nc2ncc3cc(-c4c(Cl)cccc4Cl)c(=O)n(C)c3n2)cc1`
Result: 6.92

Q: Give Platelet-derived growth factor receptor beta (Mus musculus) pIC50 for `Cn1c(=O)c(-c2c(Cl)cccc2Cl)cc2cnc(Nc3ccc(OCCN4CCCCC4)cc3)nc21`
Result: 7.01

Q: Give Platelet-derived growth factor receptor beta (Mus musculus) pIC50 for `COc1cc(Nc2ncc3cc(-c4c(Cl)cccc4Cl)c(=O)n(C)c3n2)cc(OC)c1`
Result: 5.77

Q: Give Platelet-derived growth factor receptor beta (Mus musculus) pIC50 for `CCNCCOc1ccc(Nc2ncc3cc(-c4c(Cl)cccc4Cl)c(=O)n(C)c3n2)cc1`
Result: 6.72

a. COc1ccc(Nc2ncc3cc(-c4c(Cl)cccc4Cl)c(=O)n(C)c3n2)cc1C
b. Cn1c(=O)c(-c2c(Cl)cccc2Cl)cc2cnc(Nc3ccncc3)nc21
c. Cn1c(=O)c(-c2c(Cl)cccc2Cl)cc2cnc(NCCc3ccccn3)nc21
d. CCn1c(=O)c(-c2c(Cl)cccc2Cl)cc2cnc(Nc3ccccc3)nc21
Q: Please list these in order of increasing pIC50. Thank you! Response field: labels, in requested order.
Result: c, a, d, b
(c: 5.03, a: 5.82, d: 6.10, b: 7.00)

A. COc1ccc(Nc2ncc3cc(-c4c(Cl)cccc4Cl)c(=O)n(C)c3n2)cc1
B. Cn1c(=O)c(-c2c(Cl)cccc2Cl)cc2cnc(Nc3ccc(CC(=O)O)cc3)nc21
Q: Just curious, which one has the larger pIC50 reading, A or B ? // respond with label for picked entry
Result: B

* * *

- assay-system: Platelet-derived growth factor receptor beta (Mus musculus, UniProt P05622)
- Sequence (P05622 whole entry): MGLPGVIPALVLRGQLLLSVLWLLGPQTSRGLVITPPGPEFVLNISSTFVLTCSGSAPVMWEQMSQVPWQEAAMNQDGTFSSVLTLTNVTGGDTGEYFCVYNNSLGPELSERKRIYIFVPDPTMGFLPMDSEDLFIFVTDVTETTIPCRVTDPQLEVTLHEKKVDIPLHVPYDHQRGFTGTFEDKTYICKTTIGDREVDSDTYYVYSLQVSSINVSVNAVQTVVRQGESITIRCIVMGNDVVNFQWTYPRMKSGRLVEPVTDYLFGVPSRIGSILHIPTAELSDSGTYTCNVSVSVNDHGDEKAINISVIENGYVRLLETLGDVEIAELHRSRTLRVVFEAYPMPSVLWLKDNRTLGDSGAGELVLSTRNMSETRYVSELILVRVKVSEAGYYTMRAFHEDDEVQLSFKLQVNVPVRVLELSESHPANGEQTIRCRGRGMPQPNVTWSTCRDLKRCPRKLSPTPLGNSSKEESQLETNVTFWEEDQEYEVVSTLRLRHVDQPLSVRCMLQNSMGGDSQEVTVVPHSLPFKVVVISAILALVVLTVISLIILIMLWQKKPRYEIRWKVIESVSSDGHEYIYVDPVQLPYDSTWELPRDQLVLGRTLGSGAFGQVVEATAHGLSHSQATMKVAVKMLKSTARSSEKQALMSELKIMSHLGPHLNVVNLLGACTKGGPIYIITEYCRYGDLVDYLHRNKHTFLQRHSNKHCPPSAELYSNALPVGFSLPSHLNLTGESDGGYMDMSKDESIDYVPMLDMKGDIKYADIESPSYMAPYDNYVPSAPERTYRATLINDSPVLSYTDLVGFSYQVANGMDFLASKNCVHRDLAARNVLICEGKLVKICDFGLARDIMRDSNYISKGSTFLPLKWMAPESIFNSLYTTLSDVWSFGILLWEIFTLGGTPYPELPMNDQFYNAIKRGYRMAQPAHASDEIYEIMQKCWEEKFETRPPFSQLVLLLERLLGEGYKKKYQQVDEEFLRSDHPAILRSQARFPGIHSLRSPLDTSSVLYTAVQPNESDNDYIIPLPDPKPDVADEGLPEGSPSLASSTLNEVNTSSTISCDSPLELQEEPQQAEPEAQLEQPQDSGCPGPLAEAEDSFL
- test-protocol: Inhibition of Platelet-derived growth factor receptor (PDGFr)
attribute-measured: IC50 (nM)
Write it as a number; the unit nM goes unstated.

Q: Give Platelet-derived growth factor receptor beta (Mus musculus, UniProt P05622) IC50 for `Cn1c(=O)c(-c2c(Cl)cccc2Cl)cc2cnc(Nc3ccccc3)nc21`
Result: 400

* * *

- assay-system: Platelet-derived growth factor receptor beta (Mus musculus)
- test-protocol: Inhibitory concentration was evaluated against Platelet-derived growth factor receptor beta (PDGFr) tyrosine kinase
pIC50: −log10 of the molar value.
attribute-measured: pIC50

Q: # get_value(readout='pIC50', item= `Cn1c(=O)c(-c2c(Cl)cccc2Cl)cc2cnc(NCc3ccccn3)nc21` )
Result: 5.32

I. Cn1c(=O)c(-c2c(Cl)cccc2Cl)cc2cnc(NCc3cccnc3)nc21
II. Cn1c(=O)c(-c2c(Cl)cccc2Cl)cc2cnc(Nc3ccc(OCCN)cc3)nc21
Q: Just curious, which one has the larger pIC50 reading, I or II ? // respond with label for picked entry
Result: II

* * *

Here's what we have: pIC50 numbers for Proto-oncogene tyrosine-protein kinase Src (Gallus gallus).
pIC50: −log10 of the molar value.
attribute-measured: pIC50

Q: Give Proto-oncogene tyrosine-protein kinase Src (Gallus gallus) pIC50 for `CCCCNc1ncc2cc(-c3c(Cl)cccc3Cl)c(=O)n(C)c2n1`
Result: 5.64

1. CCNCCOc1ccc(Nc2ncc3cc(-c4c(Cl)cccc4Cl)c(=O)n(C)c3n2)cc1
2. Cn1c(=O)c(-c2c(Cl)cccc2Cl)cc2cnc(Nc3ccc(Cl)cc3)nc21
3. CCNc1ncc2cc(-c3c(Cl)cccc3Cl)c(=O)n(C)c2n1
4. Cn1c(=O)c(-c2c(Cl)cccc2Cl)cc2cnc(NCCO)nc21
Q: Please list these in order of increasing pIC50. Thank you! Response field: labels, in requested order.
Result: 3, 4, 2, 1

I. COc1cc(Nc2ncc3cc(-c4c(Cl)cccc4Cl)c(=O)n(C)c3n2)cc(OC)c1
II. Cn1c(=O)c(-c2c(Cl)cccc2Cl)cc2cnc(Nc3cccc(Br)c3)nc21
Q: For I and II , which recorded pIC50 is lower? // respond with label for picked entry
Result: II

a. CC(C)Nc1ncc2cc(-c3c(Cl)cccc3Cl)c(=O)n(C)c2n1
b. CCOC(=O)c1cccc(Nc2ncc3cc(-c4c(Cl)cccc4Cl)c(=O)n(C)c3n2)c1
Q: Just curious, which one has the larger pIC50 reading, a or b ? // respond with label for picked entry
Result: b
(b: 7.85, a: 5.80)

* * *

- assay-system: Fibroblast growth factor receptor 1 (Homo sapiens)
- test-protocol: Inhibitory concentration evaluated against fibroblast growth factor receptor 1.
attribute-measured: IC50 (nM)

Q: # get_value(readout='IC50', item= `COc1ccc(Nc2ncc3cc(-c4c(Cl)cccc4Cl)c(=O)n(C)c3n2)cc1` )
Result: 410

Q: # get_value(readout='IC50', item= `Cn1c(=O)c(-c2c(Cl)cccc2Cl)cc2cnc(NCCc3ccccn3)nc21` )
Result: 6530

Q: # get_value(readout='IC50', item= `Cn1c(=O)c(-c2c(Cl)cccc2Cl)cc2cnc(NCc3ccccn3)nc21` )
Result: 3210

Q: # get_value(readout='IC50', item= `CCn1c(=O)c(-c2c(Cl)cccc2Cl)cc2cnc(Nc3ccccc3)nc21` )
Result: 210

Q: # get_value(readout='IC50', item= `COc1cc(Nc2ncc3cc(-c4c(Cl)cccc4Cl)c(=O)n(C)c3n2)cc(OC)c1` )
Result: 430

Q: # get_value(readout='IC50', item= `CN(C)CCOc1ccc(Nc2ncc3cc(-c4c(Cl)cccc4Cl)c(=O)n(C)c3n2)cc1` )
Result: 34

Q: # get_value(readout='IC50', item= `Cn1c(=O)c(-c2c(Cl)cccc2Cl)cc2cnc(NCCCCCC(=O)O)nc21` )
Result: 580

Q: # get_value(readout='IC50', item= `Cn1c(=O)c(-c2c(Cl)cccc2Cl)cc2cnc(Nc3ccncc3)nc21` )
Result: 190

I. CCOC(=O)c1ccc(Nc2ncc3cc(-c4c(Cl)cccc4Cl)c(=O)n(C)c3n2)cc1
II. CCNc1ncc2cc(-c3c(Cl)cccc3Cl)c(=O)n(C)c2n1
III. CCOC(=O)CCCc1ccc(Nc2ncc3cc(-c4c(Cl)cccc4Cl)c(=O)n(C)c3n2)cc1
IV. CCCCNc1ncc2cc(-c3c(Cl)cccc3Cl)c(=O)n(C)c2n1
V. Cn1c(=O)c(-c2c(Cl)cccc2Cl)cc2cnc(Nc3ccc(CCCC(=O)O)cc3)nc21
Q: Please list these in order of increasing IC50. Thank you! Response field: labels, in requested order.
Result: V, II, III, IV, I

* * *

- assay-system: Epidermal growth factor receptor (Homo sapiens, UniProt P00533)
- Sequence (P00533 whole entry): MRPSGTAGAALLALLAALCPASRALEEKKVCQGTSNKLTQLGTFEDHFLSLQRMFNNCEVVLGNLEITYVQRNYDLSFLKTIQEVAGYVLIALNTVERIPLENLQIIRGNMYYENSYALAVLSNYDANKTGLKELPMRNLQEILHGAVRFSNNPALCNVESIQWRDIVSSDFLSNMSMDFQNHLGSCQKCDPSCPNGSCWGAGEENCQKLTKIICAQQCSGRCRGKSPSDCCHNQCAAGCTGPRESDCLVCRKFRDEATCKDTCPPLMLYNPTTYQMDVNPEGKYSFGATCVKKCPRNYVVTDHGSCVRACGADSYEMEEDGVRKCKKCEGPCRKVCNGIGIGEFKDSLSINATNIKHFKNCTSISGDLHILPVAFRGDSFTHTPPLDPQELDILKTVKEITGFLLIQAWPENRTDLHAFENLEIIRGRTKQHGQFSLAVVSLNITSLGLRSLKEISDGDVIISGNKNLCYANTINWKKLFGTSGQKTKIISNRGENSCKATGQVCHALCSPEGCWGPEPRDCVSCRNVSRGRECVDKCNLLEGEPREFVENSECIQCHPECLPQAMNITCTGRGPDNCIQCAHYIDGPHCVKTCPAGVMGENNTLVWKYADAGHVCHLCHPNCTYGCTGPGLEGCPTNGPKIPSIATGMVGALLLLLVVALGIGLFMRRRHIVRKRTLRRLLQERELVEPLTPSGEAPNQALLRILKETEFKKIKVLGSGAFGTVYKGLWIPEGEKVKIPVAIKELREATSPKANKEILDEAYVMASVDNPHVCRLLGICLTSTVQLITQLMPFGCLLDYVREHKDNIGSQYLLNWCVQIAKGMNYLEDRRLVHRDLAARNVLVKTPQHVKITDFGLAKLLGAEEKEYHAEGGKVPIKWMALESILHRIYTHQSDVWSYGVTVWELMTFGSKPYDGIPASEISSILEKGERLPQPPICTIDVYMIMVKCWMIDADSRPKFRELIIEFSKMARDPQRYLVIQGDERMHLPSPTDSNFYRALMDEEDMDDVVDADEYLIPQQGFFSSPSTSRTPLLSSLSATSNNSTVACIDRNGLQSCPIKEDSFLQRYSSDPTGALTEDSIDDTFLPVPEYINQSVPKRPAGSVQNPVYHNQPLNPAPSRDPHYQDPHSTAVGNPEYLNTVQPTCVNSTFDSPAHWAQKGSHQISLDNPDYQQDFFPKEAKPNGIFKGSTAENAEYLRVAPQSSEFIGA
attribute-measured: IC50 (nM)

Worked cases, IC50 given:
Q: Give Epidermal growth factor receptor (Homo sapiens, UniProt P00533) IC50 for `Cn1c(=O)c(-c2c(Cl)cccc2Cl)cc2cnc(Nc3cccc(Br)c3)nc21`
Result: 670

Q: Give Epidermal growth factor receptor (Homo sapiens, UniProt P00533) IC50 for `Cn1c(=O)c(-c2c(Cl)cccc2Cl)cc2cnc(Nc3cccnc3)nc21`
Result: 510

P. CCOC(=O)CCCc1ccc(Nc2ncc3cc(-c4c(Cl)cccc4Cl)c(=O)n(C)c3n2)cc1
Q. COc1ccc(Nc2ncc3cc(-c4c(Cl)cccc4Cl)c(=O)n(C)c3n2)cc1C
R. CCNc1ncc2cc(-c3c(Cl)cccc3Cl)c(=O)n(C)c2n1
S. CNc1ncc2cc(-c3c(Cl)cccc3Cl)c(=O)n(C)c2n1
Q: Returns the items ordered by IC50, from maximum to minimum. Response field: labels, in requested order.
Result: S, R, P, Q

* * *

- assay-system: Platelet-derived growth factor receptor (Mus musculus, UniProt P05622+P26618)
- test-protocol: Inhibition of Platelet-derived growth factor receptor autophosphorylation in NIH3T3 cells
- Assay type: functional, cell-based
attribute-measured: IC50 (nM)
Write it as a number; the unit nM goes unstated.

Q: # get_value(readout='IC50', item= `Cn1c(=O)c(-c2c(Cl)cccc2Cl)cc2cnc(Nc3ccccc3)nc21` )
Result: 20

* * *

- assay-system: Fibroblast growth factor receptor 1 (Homo sapiens, UniProt P11362)
- Sequence (P11362 whole entry): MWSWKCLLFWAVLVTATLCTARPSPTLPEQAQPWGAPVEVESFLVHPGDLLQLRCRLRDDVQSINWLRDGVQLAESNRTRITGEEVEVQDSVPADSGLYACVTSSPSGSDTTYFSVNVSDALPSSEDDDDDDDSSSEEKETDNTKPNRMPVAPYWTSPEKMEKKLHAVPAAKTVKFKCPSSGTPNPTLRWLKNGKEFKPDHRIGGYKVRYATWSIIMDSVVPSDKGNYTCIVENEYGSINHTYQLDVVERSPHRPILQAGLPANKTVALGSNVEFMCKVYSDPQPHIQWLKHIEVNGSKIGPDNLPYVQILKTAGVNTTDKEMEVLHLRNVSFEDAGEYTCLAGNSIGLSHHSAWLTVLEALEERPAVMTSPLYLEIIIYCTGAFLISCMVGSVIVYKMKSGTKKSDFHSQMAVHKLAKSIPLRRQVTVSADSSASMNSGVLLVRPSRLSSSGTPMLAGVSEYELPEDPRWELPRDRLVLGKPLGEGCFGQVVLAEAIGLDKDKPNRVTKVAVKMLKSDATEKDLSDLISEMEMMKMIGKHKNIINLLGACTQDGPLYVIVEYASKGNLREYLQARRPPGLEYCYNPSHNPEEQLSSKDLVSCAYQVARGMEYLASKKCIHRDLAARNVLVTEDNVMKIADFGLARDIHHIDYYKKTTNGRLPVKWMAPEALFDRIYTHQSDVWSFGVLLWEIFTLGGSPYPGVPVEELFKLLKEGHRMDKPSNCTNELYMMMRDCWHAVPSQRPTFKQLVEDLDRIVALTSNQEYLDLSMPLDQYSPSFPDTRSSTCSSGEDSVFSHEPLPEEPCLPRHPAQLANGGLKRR
- test-protocol: Inhibition of fibroblast growth factor receptor (FGFr) tyrosine kinase
attribute-measured: pIC50
// field semantics: pIC50 = negative decimal log of concentration (mol/L)

Q: # get_value(readout='pIC50', item= `CCN(CC)CCOc1cccc(Nc2ncc3cc(-c4c(Cl)cccc4Cl)c(=O)n(C)c3n2)c1` )
Result: 7.52
